Task for the reader: assign each of the following compounds its reported MIC.
# Test system: Trichophyton mentagrophytes
# procedure.details: Antifungal activity against Trichophyton mentagrophytes after 96 hrs by broth microdilution method
# Format: functional
One number for each entry, in µg/mL.

>>> numeric_result("O=C1C(Cl)=C(N2CCCCC2)C(=O)C(Cl)=C1N1CCCCC1")
12.5
>>> numeric_result("OC(Cn1cncn1)(Cn1cncn1)c1ccc(F)cc1F")
16

QUERY: Please look up its MIC: `O=C1C(Cl)=C(N2CCOCC2)C(=O)C(Cl)=C1N1CCOCC1`
RESULT: 6.25

---

# procedure.details: Cytotoxicity against mouse L929 cells assessed as cell viability at 6.25 to 50 ug/ml after 24 hrs by MTT assay
# Type: cell-based
# condition.description: read-out: Activity
property.label: viability at 24 h

QUERY: Please look up its viability at 24 h: `CN1CCN(C2=C(Cl)C(=O)C(N3CCN(C)CC3)=C(Cl)C2=O)CC1`
RESULT: > 90%
